# protocolSummary: Preemergence herbicidal activity (% control) against monocot weeds
# Format: in vivo
# testParameters: pre-emergence, 336 h; 4 lb./A., average, about two weeks after application; read-out: Herbicidal activity (% control), preemergence, monocots
Listed below: activity at 4483.4 g/ha values for each entry.
Please respond with the number in % and leave the unit unwritten.

Reference set, count: 5
CCOc1cc(Oc2ccc(C(F)(F)F)cc2Cl)ccc1[N+](=O)[O-] [Example 3] = 89
O=C(O)COc1cc(Oc2ccc(C(F)(F)F)cc2Cl)ccc1[N+](=O)[O-] [Example 23] = 90
CCOC(=O)COc1cc(Oc2ccc(C(F)(F)F)cc2Cl)ccc1[N+](=O)[O-] [Example 24] = 91
CCN(CC)c1cc(Oc2ccc(C(F)(F)F)cc2Cl)ccc1[N+](=O)[O-] [Example 21] = 91
CC(Oc1cc(Oc2ccc(C(F)(F)F)cc2Cl)ccc1[N+](=O)[O-])C(N)=O (stereo not drawn) [Example 51] = 79

I would be grateful if you could share the reported activity at 4483.4 g/ha for O=[N+]([O-])c1ccc(Oc2ccc(C(F)(F)F)cc2Cl)cc1OCC(F)(F)F [Example 11] . 81
